Hey, just so you know, these numbers are from patent US8133898B2.

# EXPERIMENTAL_SYSTEM: UniProt P27487
# MEASUREMENT_PROTOCOL: in vitro enzymatic activity of inhibitors against DPP-IV
# Type: biochemical
# MEASUREMENT_CONTEXT: AP-AFC substrate
pIC50: −log10 of the molar value.
METRIC_NAME: pIC50

Give the measured pIC50 for Cn1c(=O)c2c(-c3cc(F)ccc3Br)c(CN)c(NC(Cc3ccccc3)c3ccccc3)nc2n(C)c1=O (stereo not drawn) [Compound 91]
> 6.00

Give the measured pIC50 for CCCOc1ccc(OCCC)c(CNc2nc3c(c(-c4ccc(Cl)cc4Cl)c2CN)c(=O)n(C)c(=O)n3C)c1 [Compound 84]
5.00 to 6.00

Give the measured pIC50 for COc1ccc(F)cc1-c1c(CN)c(NCc2ccc(-n3cccn3)cc2)nc2c1c(=O)n(C)c(=O)n2C [Compound 72]
> 6.00

Give the measured pIC50 for CC(C)COc1ccc(Cl)cc1-c1c(CN)c(NCc2ccc3ccccc3c2)nc2c1c(=O)n(C)c(=O)n2C [Compound 88]
5.00 to 6.00

Give the measured pIC50 for COc1ccc(F)cc1-c1c(CN)c(NCc2cccc(OCC(C)C)c2)nc2c1c(=O)n(C)c(=O)n2C [Compound 83]
> 6.00

Give the measured pIC50 for COc1ccc(F)cc1-c1c(CN)c(NCc2ccccc2C(F)(F)F)nc2c1c(=O)n(C)c(=O)n2C [Compound 87]
> 6.00

* * *

# EXPERIMENTAL_SYSTEM: Recombinant human renin (Homo sapiens, UniProt P00797)
# Construct: with trypsin, and isolate the active form (residues 67-406)
# Sequence (P00797 67-406): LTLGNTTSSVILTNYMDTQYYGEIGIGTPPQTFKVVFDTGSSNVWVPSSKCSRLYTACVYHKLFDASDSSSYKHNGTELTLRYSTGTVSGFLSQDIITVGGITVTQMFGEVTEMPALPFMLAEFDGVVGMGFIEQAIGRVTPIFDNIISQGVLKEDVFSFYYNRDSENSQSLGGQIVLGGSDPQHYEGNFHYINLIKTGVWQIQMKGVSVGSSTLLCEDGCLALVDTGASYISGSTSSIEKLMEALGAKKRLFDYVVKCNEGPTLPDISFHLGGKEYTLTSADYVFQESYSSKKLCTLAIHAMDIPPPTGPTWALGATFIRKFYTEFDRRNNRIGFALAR
# MEASUREMENT_PROTOCOL: in vitro enzymatic activity of renin inhibitors (fluorescence)
# MEASUREMENT_CONTEXT: fluorogenic peptide substrate
# Source text: Test compounds in varying concentrations may be reacted with recombinant human renin in the presence of substrate, e.g., QXL520-γ-Abu-Ile-His-Pro-Phe-His-Leu-Val-Ile-His-Thr-Lys (HiLyteFluo488)-Arg-OH (Anaspec, San Jose, Calif.). The reaction can be followed kinetically using fluorescence (excitation λ=485 nm; emission λ=538 nm). Inhibition constants (IC50) may be calculated by non-linear curve fitting of the compound concentrations and fluorescence intensities to the standard IC50 equation. […]
pIC50: −log10 of the molar value.
METRIC_NAME: pIC50

Give the measured pIC50 for COc1ccc(F)cc1-c1c(CN)c(NCc2cccc(OCC(C)C)c2)nc2c1c(=O)n(C)c(=O)n2C
5.00 to 6.00

Give the measured pIC50 for CN(C)C(=O)c1cccc(-c2c(CN)c(NCc3ccc4ccccc4c3)nc3c2c(=O)n(C)c(=O)n3C)c1
5.00 to 6.00

Give the measured pIC50 for Cn1c(=O)c2c(-c3nc4ccccc4s3)c(CN)c(NCc3ccc4ccccc4c3)nc2n(C)c1=O
< 4.00

Give the measured pIC50 for COc1ccc(F)cc1-c1c(CN)c(NCc2ccc(-n3cccn3)cc2)nc2c1c(=O)n(C)c(=O)n2C
5.00 to 6.00

Give the measured pIC50 for CC(=O)Nc1ccc(Sc2nc3c(c(-c4cc(F)ccc4Br)c2CN)c(=O)n(C)c(=O)n3C)cc1
4.00 to 5.00

Give the measured pIC50 for Cn1c(=O)c2c(-c3cccc(O)c3)c(CN)c(NCc3ccc4ccccc4c3)nc2n(C)c1=O
5.00 to 6.00

Give the measured pIC50 for COc1ccc(F)cc1-c1c(CN)c(NCc2ccc3ccccc3c2)nc2c1c(=O)n(C)c(=O)n2C
5.00 to 6.00

Give the measured pIC50 for COc1ccc(F)cc1-c1c(CN)c(NCc2cccc(OCc3ccccc3)c2)nc2c1c(=O)n(C)c(=O)n2C
5.00 to 6.00

Give the measured pIC50 for CCC(CC)Nc1nc2c(c(-c3cc(F)ccc3OC)c1CN)c(=O)n(C)c(=O)n2C
5.00 to 6.00

Give the measured pIC50 for CC(C)COc1ccccc1-c1c(CN)c(NCc2ccc3ccccc3c2)nc2c1c(=O)n(C)c(=O)n2C
5.00 to 6.00

Give the measured pIC50 for Cn1c(=O)c2c(-c3cccc(F)c3)c(CN)c(NCc3ccc4ccccc4c3)nc2n(C)c1=O
5.00 to 6.00

Give the measured pIC50 for COc1ccc(F)cc1-c1c(CN)c(NCc2ccccc2C(F)(F)F)nc2c1c(=O)n(C)c(=O)n2C
5.00 to 6.00

Give the measured pIC50 for CCOc1cc(OCC)cc(-c2c(CN)c(NCc3ccc4ccccc4c3)nc3c2c(=O)n(C)c(=O)n3C)c1
< 4.00

Give the measured pIC50 for COc1ccc(F)cc1-c1c(CN)c(NCCc2ccccc2)nc2c1c(=O)n(C)c(=O)n2C
4.00 to 5.00

Give the measured pIC50 for Cn1c(=O)c2c(-c3cccc4c3OC(C)(C)C4)c(CN)c(NCc3ccc4ccccc4c3)nc2n(C)c1=O
5.00 to 6.00

* * *

Quick record of IC50 values for Human DPP-IV (Homo sapiens).

Give the measured IC50 for CCOc1cc(OCC)cc(-c2c(CN)c(NCc3ccc4ccccc4c3)nc3c2c(=O)n(C)c(=O)n3C)c1
> 100 µM

Give the measured IC50 for COc1ccc(F)cc1-c1c(CN)c(NCc2cccc(OCc3ccccc3)c2)nc2c1c(=O)n(C)c(=O)n2C
< 1 µM

Give the measured IC50 for CCNCc1c(NCc2ccc3ccccc3c2)nc2c(c1-c1cc(OC)cc(OC)c1)c(=O)n(C)c(=O)n2C
> 100 µM

Give the measured IC50 for Cn1c(=O)c2c(-c3cccc(OCc4cncs4)c3)c(CN)c(NCc3ccc4ccccc4c3)nc2n(C)c1=O
10 to 100 µM

Give the measured IC50 for CC(=O)Nc1ccc(Sc2nc3c(c(-c4cc(F)ccc4Br)c2CN)c(=O)n(C)c(=O)n3C)cc1
< 1 µM

Give the measured IC50 for Cn1c(=O)c2c(-c3cccc(F)c3)c(CN)c(NCc3ccc4ccccc4c3)nc2n(C)c1=O
1 to 10 µM

Give the measured IC50 for Cn1c(=O)c2c(-c3ccccc3Oc3ccccc3)c(CN)c(NCc3ccc4ccccc4c3)nc2n(C)c1=O
1 to 10 µM
